Each recorded value in this set is attributed to PubChem BioAssay AID2058.

Assay target: G-protein coupled receptor 35 (Homo sapiens)
Assay notes: inhibition of zaprinast-stimulated GPR35 beta-arrestin translocation – imaging, U2OS, beta-arrestin-GFP, zaprinast agonist, primary screen (AID 2058)
Measurement context: zaprinast antagonism, at 10 µM, hits give high values
Screen size: about 290,000 compounds; about 150 (0.052%) were called active. This is one part of a sample in which actives are shown more often than they occur. Potency and affinity values are given separately.
Test readout: inhibition (%)
Reply numerically in %, unit not repeated.

Which inhibition is listed for CC(C)S(=O)(=O)C1=NSC2=NC(=O)/C(=C\c3ccc(-c4cccc(C(=O)O)c4)o3)C(=N)N21 ?
-1.8

Which inhibition is listed for N=C1/C(=C\c2ccc(-c3cccc(Cl)c3)o2)C(=O)N=C2SC=C(c3ccccc3)N12 ?
-1.6

Which inhibition is listed for N=C1/C(=C\c2ccc(-c3cc(Cl)cc(Cl)c3)o2)C(=O)N=C2SC=C(c3ccccc3)N12 ?
-4.5

Which inhibition is listed for N=C1/C(=C\c2ccc(-c3ccc(C(=O)O)cc3)o2)C(=O)N=C2SC=C(c3ccccc3)N12 ?
43
